Reported GI50 by item:
System: CAKI-1
test_protocol: NCI tumour cell line growth inhibition, 48 h
Calls of active or inactive are those of the source. Rule as the data show it: active = GI50 up to about 1.1 µM and inactive = higher.

Request: Any idea what its GI50 is? The compound is CC(NC(CC12CC3CC(CC(C3)C1)C2)C(N)=O)c1ccccc1 (stereo not given)
Result: 23.3 µM (inactive)

Request: Any idea what its GI50 is? The compound is CCN(CC(O)COc1ccc2c(c1)[n+]([O-])nc(N)[n+]2[O-])C(C)=O (stereo not given)
Result: > 100 µM (inactive)

---

Reported GI50 by item:
Test system: OVCAR-5
test_protocol: NCI tumour cell line growth inhibition, 48 h
Activity calls are given as the source filed them. No stated cut-off is given here; in the data, active = GI50 up to about 1.1 µM and inactive = higher.

O=C(O)c1cc2ccccc2c(/N=N/c2ccc(S(=O)(=O)Nc3ncccn3)cc2)c1O; > 100 µM (inactive)
C=CCn1c(-c2ccccc2)cs/c1=N\C(P(=O)(O)O)P(=O)(O)O; > 100 µM (inactive)
COC(=O)C1=Cc2c(cc(OC)c(OC)c2OC)[C@H](c2ccc(OC)c(OC)c2OC)C1C(=O)OC (stereo not given in full); > 100 µM (inactive)
COc1ccc(C2(C3c4cc(OC)c(OC)cc4CCN3C)SCCCS2)cc1O (stereo not given); > 100 µM (inactive)
COc1cc(/C=C/C(=O)OCC23CC[C@@]4(C(=O)O)CCC(C)[C@H](C)C4C2=CCC2[C@@]4(C)CC[C@H](O)C(C)(C)C4CC[C@]23C)ccc1O (stereo not given in full); 21.7 µM (inactive)

Request: Any idea what its GI50 is? The compound is C=CC/C=C/Cc1csc(C(C)(C)C(O)C/C=C/C(=C)CCNC(=O)OC)n1 (stereo not given)
Result: > 100 µM (inactive)

Request: Any idea what its GI50 is? The compound is Cc1cc2nn(C3CCCCO3)nc2cc1C (stereo not given)
Result: > 100 µM (inactive)

Request: Any idea what its GI50 is? The compound is COc1cc2cnc(-c3ccccc3)cc2cc1OC
Result: 33.2 µM (inactive)

Request: Any idea what its GI50 is? The compound is CN1C(=O)C(=CNc2ccccc2Cl)C(=O)N(C)C1=O
Result: 24.8 µM (inactive)

Request: Any idea what its GI50 is? The compound is CC1=C(Cl)C=CP(=O)(Oc2ccccc2)C1 (stereo not given)
Result: > 100 µM (inactive)

Request: Any idea what its GI50 is? The compound is N#Cc1sc2c(c1O)c(=O)n(-c1ccccc1)c(=S)n2-c1ccccc1
Result: > 100 µM (inactive)

Request: Any idea what its GI50 is? The compound is CC(=O)Oc1c(C)c2c(c3ccccc13)OC(C)(C)C2
Result: 19.5 µM (inactive)

Request: Any idea what its GI50 is? The compound is Cc1cc(SCC(=O)c2ccccc2)nc2ccccc12
Result: 72.9 µM (inactive)

Request: Any idea what its GI50 is? The compound is COc1ccc(-c2sc(Br)c3c2C(=O)C2OC(=O)NC32)cc1OC (stereo not given)
Result: > 100 µM (inactive)

Request: Any idea what its GI50 is? The compound is CC1CCC2c3c([nH]c4ccccc34)C3C(=O)N(C4CCCCC4)C(=O)C3C2C1 (stereo not given)
Result: 18.5 µM (inactive)

Request: Any idea what its GI50 is? The compound is O=C(CCC(=O)Nc1ccc(Cl)c(Cl)c1)CC(=O)c1ccc2ccccc2c1
Result: > 100 µM (inactive)

The reported numbers originate from ChEMBL document CHEMBL1201862.
